These measurements were taken from patent US20080280920A1.

Test system UACC-62, GI50 listed for each of the compounds.
experimental readout: GI50 (µM)

[[record]]
compound = "COc1cc(CNCC2CCN(C(=O)OC(C)(C)C)CC2)cc(CN2CCN(c3ccccn3)CC2)c1O"
assay_target = "UACC-62"
relational_operator = "="
measured = 17.2

[[record]]
compound = "CCOC(=O)[C@H](Cc1ccccc1)NCc1cc(CN2CCN(c3ccccn3)CC2)c(O)c(OC)c1 [Compound Q012147T]"
assay_target = "UACC-62"
relational_operator = ">"
measured = 100

[[record]]
compound = "CC(C)(C)OC(=O)Nc1ccc(O)c(C(=O)NCCOC(=O)NCCNC(=O)c2cc(OCc3ccccc3)ccc2OCc2ccccc2)c1"
assay_target = "UACC-62"
relational_operator = ">"
measured = 100

[[record]]
compound = "CCOC(=O)c1ccc(CNCc2cc(CN3CCN(c4ccccn4)CC3)c(O)c(OC)c2)cc1 [Compound Q012135T]"
assay_target = "UACC-62"
relational_operator = "="
measured = 20.1

[[record]]
compound = "COc1cc(CNc2ccc(C(=O)OC(C)(C)C)cc2)cc(CN2CCN(c3ccccn3)CC2)c1O [Compound Q012145T]"
assay_target = "UACC-62"
relational_operator = "="
measured = 74.5

